assay: qHTS of pediatric cancer cell lines to identify multiple opportunities for drug repurposing: Primary screen for SK-N-SH cells (AID 1347098); conditions: SK-N-SH viability, CellTiter-Glo luminescence, 48 h; series mostly up to 57 µM; further: nearly all actives have a fitted effect of over 65% in size
Results filed as inconclusive are left out. Active and inactive are the calls of the source. The call rests on the fitted dose curve; in most records, active means well fitted cell-killing curve with a large enough effect; inconclusive means small, poorly fitted or top-dose-only effect; inactive means no such curve, though single readings can be large or run the other way.
Pick one: active, inactive

Reference set, count: 5
{"Compound": "CN1C(C(=O)Nc2ccccn2)=C(O)c2sccc2S1(=O)=O", "Assigned Class": "inactive"}
{"Compound": "N[C@@H](Cc1cc(I)c(Oc2cc(I)c(O)c(I)c2)c(I)c1)C(=O)O", "Assigned Class": "inactive"}
{"Compound": "Nc1ccn([C@@H]2O[C@H](CO)[C@@H](O)C2O)c(=O)n1 (stereo partly specified)", "Assigned Class": "inactive"}
{"Compound": "COc1ccccc1N1CCN(CCN(C(=O)C2CCCCC2)c2ccccn2)CC1", "Assigned Class": "inactive"}
{"Compound": "CCN(CC)C(=S)SSC(=S)N(CC)CC", "Assigned Class": "active"}

Switching to the query record.
Request: Test call for this compound, please: CCCc1cc(=O)[nH]c(=S)[nH]1
Result: inactive

###

assay: qHTS Assay for Lipid Storage Modulators (AID 1519); details: Drosophila S3 cells, BODIPY lipid droplet/cell ratio, laser cytometry; measured here: lipid channel max response; cells loaded with oleic acid
Records with an inconclusive call do not appear.
Listed compounds paired with reported max response
The answer is to be given in %; state only the numeric part.

Some solved cases for reference:
{"Compound": "CCN(CC)C(=S)SSC(=S)N(CC)CC", "max response / %": -17}
{"Compound": "COc1c2occc2cc2ccc(=O)oc12", "max response / %": 1.14}
{"Compound": "NS(=O)(=O)c1cc(C(=O)O)c(NCc2ccco2)cc1Cl", "max response / %": -4.2}
{"Compound": "O=C(CCc1ccc(O)cc1)c1c(O)cc(O)cc1O", "max response / %": 18.1}
{"Compound": "COc1cc(OC)c(C(=O)CCCN2CCCC2)c(OC)c1", "max response / %": -9.82}
{"Compound": "N=C(N=C(N)N)N1CCOCC1", "max response / %": 12.8}
{"Compound": "C[C@@H](N)C1CCC(C(=O)Nc2ccncc2)CC1 (stereo partly specified)", "max response / %": -0.634}
{"Compound": "O=c1c(O)c(-c2ccc(O)cc2O)oc2cc(O)cc(O)c12", "max response / %": 19}
{"Compound": "COc1cc2nc(N3CCN(C(=O)C4CCCO4)CC3)nc(N)c2cc1OC (stereo unspecified)", "max response / %": -3.7}
{"Compound": "O=C1c2ccccc2-c2n[nH]c3cccc1c23", "max response / %": -4.08}

Request: May I ask what max response has been recorded for CN1C(C(=O)Nc2ccccn2)=C(O)c2sccc2S1(=O)=O ?
Result: -4.62

Request: May I ask what max response has been recorded for CCC1=C(C)CN(C(=O)NCCc2ccc(S(=O)(=O)NC(=O)NC3CCC(C)CC3)cc2)C1=O (stereo unspecified) ?
Result: -5.89

Request: May I ask what max response has been recorded for CN(C)CCCC1(c2ccc(F)cc2)OCc2cc(C#N)ccc21 (stereo unspecified) ?
Result: -12.9

Request: May I ask what max response has been recorded for Nc1nc(Cl)nc2c1ncn2[C@H]1C[C@H](O)[C@@H](CO)O1 ?
Result: -3.39

Request: May I ask what max response has been recorded for CCOc1cc(CC(=O)N[C@@H](CC(C)C)c2ccccc2N2CCCCC2)ccc1C(=O)O ?
Result: -9.52

Request: May I ask what max response has been recorded for O=C(NC(Cc1cc(=O)[nH]c2ccccc12)C(=O)O)c1ccc(Cl)cc1 (stereo unspecified) ?
Result: 35

###

assay: Stat Signaling Pathway (AID 446); conditions: ME-180 (cervical carcinoma) SIE beta-lactamase reporter, IL-6 stimulated, 5 h; series mostly up to 17.2 µM;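 further: ME-180 cervical cancer cells given 40 pM IL-6 alongside compound; SIE-controlled beta-lactamase reporter measured as 460/530 nm FRET emission ratio; on the % scale 0 is the no-effect control and ±100 the full control effect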
Inconclusive results are not listed. Active and inactive are the calls of the source. Calls follow the shape of the dose curve; as a rule, active = well fitted curve in either direction with a large enough effect (not every such curve was filed as active); inconclusive = small, poorly fitted or top-dose-only effect, or another doubt; inactive = flat fitted curve, though single readings scatter.
Value Kind: outcome

Some solved cases for reference:
{"Compound": "Nc1nc(Cl)nc2c1ncn2[C@H]1C[C@H](O)[C@@H](CO)O1", "Result": "inactive"}
{"Compound": "O=c1c(O)c(-c2cc(O)c(O)c(O)c2)oc2cc(O)cc(O)c12", "Result": "inactive"}
{"Compound": "CCC1=C(C)CN(C(=O)NCCc2ccc(S(=O)(=O)NC(=O)NC3CCC(C)CC3)cc2)C1=O (configuration not stated)", "Result": "inactive"}
{"Compound": "c1ccc2[nH]c(-c3cscn3)nc2c1", "Result": "inactive"}
{"Compound": "Nc1ccc(S(N)(=O)=O)cc1", "Result": "inactive"}

Request: May I ask what outcome has been recorded for CN1C(C(=O)Nc2ccccn2)=C(O)c2sccc2S1(=O)=O ?
Result: inactive

Request: May I ask what outcome has been recorded for Cc1cc(C2CCCCC2)n(O)c(=O)c1 ?
Result: inactive

Request: May I ask what outcome has been recorded for CCCCc1ccc2nc(NC(=O)OC)[nH]c2c1 ?
Result: inactive

###

assay: Natriuretic polypeptide receptor (hNpr1) antagonism - Pilot counterscreen GloSensor control cell line (AID 1347045); conditions: HEK293 cGMP GloSensor cells, SNP-stimulated luminescence, 20 min; series mostly up to 38.3 µM
Records with an inconclusive call do not appear. Calls of active or inactive are those of the source. The call rests on the fitted dose curve.
Pick one: active, inactive

{"Chemical String": "O=c1c(O)c(-c2ccc(O)cc2O)oc2cc(O)cc(O)c12", "Assigned Class": "inactive"}
{"Chemical String": "Nc1nc(N)c(N=O)c(OCC2CCCCC2)n1", "Assigned Class": "inactive"}
{"Chemical String": "COc1ccccc1N1CCN(CCN(C(=O)C2CCCCC2)c2ccccn2)CC1", "Assigned Class": "inactive"}

Switching to the query record.
Request: Test call for this compound, please: CC(=O)N1CCN(c2ccc(OC[C@H]3CO[C@](Cn4ccnc4)(c4ccc(Cl)cc4Cl)O3)cc2)CC1
Result: active

###

assay: qHTS of pediatric cancer cell lines to identify multiple opportunities for drug repurposing: Confirmatory screen for OHS-50 cells (AID 1347128); conditions: OHS-50 osteosarcoma cells viability; series mostly up to 45.9 µM;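 further: compound exposure lasted 48 h at 37 degrees C; nearly all actives have a fitted effect of over 55% in size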; further: potency means the concentration at half of the fitted maximal effect
Inconclusive results are not listed. Calls of active or inactive are those of the source. Calls follow the shape of the dose curve; as a rule, active = well fitted cell-killing curve with a large enough effect; inconclusive = small, poorly fitted or top-dose-only effect, or effect the other way; inactive = no such curve, though single readings can be large or run the other way.
Value Kind: Potency

Some solved cases for reference:
{"Compound": "CCN(CC)CCOc1ccc(Nc2ncc3cc(-c4c(Cl)cccc4Cl)c(=O)n(C)c3n2)cc1", "Result": "1310 nM (active)"}
{"Compound": "Cc1nc(Nc2ncc(C(=O)Nc3c(C)cccc3Cl)s2)cc(N2CCN(CCO)CC2)n1", "Result": "inactive"}
{"Compound": "CC(C)C[C@H](NC(=O)[C@H](Cc1ccccc1)NC(=O)c1cnccn1)B(O)O", "Result": "73.7 nM (active)"}
{"Compound": "CCN(CCO)CCCC(C)Nc1ccnc2cc(Cl)ccc12 (stereo unspecified)", "Result": "inactive"}
{"Compound": "Oc1ccc(-c2nc(-c3ccc(F)cc3)c(-c3ccncc3)[nH]2)cc1", "Result": "3690 nM (active)"}

Request: May I ask what Potency has been recorded for c1cnc2cc3c(cc2n1)C1CNCC3C1 ?
Result: inactive

Request: May I ask what Potency has been recorded for CN(C)c1ccc(O)c2c1C[C@H]1C[C@H]3[C@H](N(C)C)C(=O)C(C(N)=O)=C(O)[C@@]3(O)C(=O)C1=C2O ?
Result: inactive

Request: May I ask what Potency has been recorded for CCCCc1ccc2nc(NC(=O)OC)[nH]c2c1 ?
Result: 329 nM (active)

Request: May I ask what Potency has been recorded for CS(=O)(=O)OCCCCOS(C)(=O)=O ?
Result: inactive

Request: May I ask what Potency has been recorded for CCOc1cc(CC(=O)N[C@@H](CC(C)C)c2ccccc2N2CCCCC2)ccc1C(=O)O ?
Result: inactive

Request: May I ask what Potency has been recorded for Nc1ncn([C@H]2C[C@H](O)[C@@H](CO)O2)c(=O)n1 ?
Result: inactive

###

test: Quantitative High-Throughput drug screen in 47 multiple myeloma cell lines against the NCATS MIPE library collection: AMO1_DSMZ cell viability assay (AID 1918927; further: nearly all actives have a fitted effect of over 30% in size); details: AMO1 myeloma cells viability, CellTiter-Glo ATP luminescence, 48 h; series mostly up to 45.8 µM
Inconclusive results are not listed. Activity calls are given as the source filed them. The call rests on the fitted dose curve; in most records, active means well fitted cell-killing curve with a large enough effect; inconclusive means small, poorly fitted or top-dose-only effect, or effect the other way; inactive means no such curve, though single readings can be large or run the other way.
Pick one: active, inactive

Reference set, count: 2
{"Compound": "CCN(CC)CCOc1ccc(Nc2ncc3cc(-c4c(Cl)cccc4Cl)c(=O)n(C)c3n2)cc1", "Assigned Class": "active"}
{"Compound": "CCC1=C(C)CN(C(=O)NCCc2ccc(S(=O)(=O)NC(=O)NC3CCC(C)CC3)cc2)C1=O (centres undefined)", "Assigned Class": "inactive"}

Request: Test call for this compound, please: O=c1c(O)c(-c2cc(O)c(O)c(O)c2)oc2cc(O)cc(O)c12
Result: inactive

Request: Test call for this compound, please: O=C(NOCC1CC1)c1ccc(F)c(F)c1Nc1ccc(I)cc1Cl
Result: active

Request: Test call for this compound, please: CN(C)CCCC1(c2ccc(F)cc2)OCc2cc(C#N)ccc21 (centres undefined)
Result: inactive

Request: Test call for this compound, please: N=C(N=C(N)N)N1CCOCC1
Result: inactive
